quantity: melting point (°C)

| smiles.record | melting point (°C) |
| --- | --- |
| Cc1cc(C(=O)N(C)c2ccccc2)cc(C)c1NC(=O)CN1C(=O)N(c2ccccc2)C2(CCCCC2)C1=O | 242 |
| COc1cccc(N2C(=O)N(CC(=O)Nc3c(C(C)C)cccc3C(C)C)C(=O)C23CCCCC3)c1 | 198 |
| Cc1ccccc1N1C(=O)N(CC(=O)Nc2c(C(C)C)cccc2C(C)C)C(=O)C12CCCCC2 | 238 |
| COc1ccc(N2C(=O)N(CC(=O)Nc3c(C(C)C)cccc3C(C)C)C(=O)C23CCCCC3)cc1 | 193 |
| CCc1cccc(CC)c1NC(=O)CN1C(=O)N(c2ccc(C)cc2)C2(CCCCC2)C1=O | 214 |
| Cc1cc(C(=O)N(C)C2CCCCC2)cc(C)c1NC(=O)CN1C(=O)N(c2ccccc2)C2(CCCCC2)C1=O | 177 |
| CC(C)c1cccc(C(C)C)c1NC(=O)CN1C(=O)N(CC2CCCCC2)C2(CCCCC2)C1=O | 219 |
